Provide the reported selectivity ratio of each item.
- assay overview: Therapeutic index was measured on P-388 leukemia cells against P-388 leukemia cells
- Type: organism-based
- experimental context: mouse, read-out: Therapeutic index
One number for each entry.

compound	endpoint name	value
CCCC1(O)C(=O)OCc2c1cc1n(c2=O)Cc2cc3cccnc3nc2-1 (stereo not drawn)	selectivity ratio	2
CCC1(O)C(=O)OCc2c1cc1n(c2=O)Cc2cc3cc4ccccc4cc3nc2-1 (stereo not drawn)	selectivity ratio	4

Please examine the following record next.
Query: selectivity ratio lookup needed for CCN(CC)CCOc1ccc2nc3c(cc2c1)Cn1c-3cc2c(c1=O)COC(=O)[C@]2(O)CC.Cl , thanks.
Result: 16
